Value source: patent US20250163127A1

Give Fortebio Response Units (Response Units) for every item shown.
biological target: PD-1-Fc (human) (UniProt Q15116); assay: ForteBio Octet, PD-1 on anti-human capture sensor, 100 nM
Sequence (Q15116 25-167 limits assumed): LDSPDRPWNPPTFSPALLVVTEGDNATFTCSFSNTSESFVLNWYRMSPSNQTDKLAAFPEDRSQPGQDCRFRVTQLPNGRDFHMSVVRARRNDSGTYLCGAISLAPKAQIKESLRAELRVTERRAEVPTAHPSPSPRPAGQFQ
Format: numeric value only, no unit, no commentary.

### Prompt Returns the measured Fortebio Response Units (Response Units) for the input binder. Input: variant PD-L2 IgV S67L/I85F Fc fusion (Fc fusion) LFTVTVPKELYIIEHGSNVTLECNFDTGSHVNLGAITASLQKVENDTSPHRERATLLEEQLPLGKALFHIPQVQVRDEGQYQCIFIYGVAWDYKYLTLKVKA
### Response -0.005

### Prompt Returns the measured Fortebio Response Units (Response Units) for the input binder. Input: variant PD-L2 IgV H15Q Fc fusion (Fc fusion) LFTVTVPKELYIIEQGSNVTLECNFDTGSHVNLGAITASLQKVENDTSPHRERATLLEEQLPLGKASFHIPQVQVRDEGQYQCIIIYGVAWDYKYLTLKVKA
### Response 0.007

### Prompt Returns the measured Fortebio Response Units (Response Units) for the input binder. Input: variant PD-L2 IgV H15Q/T47A/Q72H/R76G/I86T Fc fusion (Fc fusion) LFTVTVPKELYIIEQGSNVTLECNFDTGSHVNLGAITASLQKVENDASPHRERATLLEEQLPLGKASFHIPHVQVGDEGQYQCIITYGVAWDYKYLTLKVKA
### Response 0.512

### Prompt Returns the measured Fortebio Response Units (Response Units) for the input binder. Input: variant PD-L2 IgV H15Q/Q82R/V89D Fc fusion (Fc fusion) LFTVTVPKELYIIEQGSNVTLECNFDTGSHVNLGAITASLQKVENDTSPHRERATLLEEQLPLGKASFHIPQVQVRDEGQYRCIIIYGDAWDYKYLTLKVKA
### Response 1.2

### Prompt Returns the measured Fortebio Response Units (Response Units) for the input binder. Input: variant PD-L2 IgV G28V/Q72H/R76G/I86T Fc fusion (Fc fusion) LFTVTVPKELYIIEHGSNVTLECNFDTVSHVNLGAITASLQKVENDTSPHRERATLLEEQLPLGKASFHIPHVQVGDEGQYQCIITYGVAWDYKYLTLKVKA
### Response 0.003
